biological target: V600E-mutated B-RAF (Homo sapiens, UniProt P15056, V600E); test: In vitro assay for inhibition of mutant B-RAF kinase (recombinant V600E-mutated B-RAF, MEK (K97R) substrate); assay type: biochemical; conditions: 10 nM recombinant V600E-mutated B-RAF
Sequence (P15056 whole entry V600E): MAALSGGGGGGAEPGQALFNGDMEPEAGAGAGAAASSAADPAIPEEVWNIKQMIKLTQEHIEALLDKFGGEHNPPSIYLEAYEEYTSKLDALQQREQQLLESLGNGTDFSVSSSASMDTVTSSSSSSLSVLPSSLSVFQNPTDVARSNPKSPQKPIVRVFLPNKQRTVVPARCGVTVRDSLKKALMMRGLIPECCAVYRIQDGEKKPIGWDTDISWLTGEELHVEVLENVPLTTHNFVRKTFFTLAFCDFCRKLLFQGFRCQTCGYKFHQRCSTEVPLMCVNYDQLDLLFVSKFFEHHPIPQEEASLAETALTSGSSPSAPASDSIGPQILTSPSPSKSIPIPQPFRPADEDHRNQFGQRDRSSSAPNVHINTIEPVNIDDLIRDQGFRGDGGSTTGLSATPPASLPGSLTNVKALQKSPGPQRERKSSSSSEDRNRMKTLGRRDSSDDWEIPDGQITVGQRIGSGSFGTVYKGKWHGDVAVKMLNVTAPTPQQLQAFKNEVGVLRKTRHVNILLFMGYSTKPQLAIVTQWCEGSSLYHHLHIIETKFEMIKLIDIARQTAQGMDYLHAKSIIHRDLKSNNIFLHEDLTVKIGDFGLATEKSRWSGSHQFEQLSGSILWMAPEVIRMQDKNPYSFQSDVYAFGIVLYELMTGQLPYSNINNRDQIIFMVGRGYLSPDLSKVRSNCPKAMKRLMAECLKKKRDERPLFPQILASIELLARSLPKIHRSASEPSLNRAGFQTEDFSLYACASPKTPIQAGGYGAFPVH
Value Type: IC50

Answered cases to consult:
Write down the reported IC50 of CCn1cc(-c2ccc(F)c(NC(=O)Nc3ccc(Cl)cc3)c2)c(-c2ccncc2)n1 , test system: V600E-mutated B-RAF (Homo sapiens, UniProt P15056, V600E).
≤ 0.1 µM

What reported IC50 corresponds to Cc1nc(-c2ccnc(N)c2)c(-c2ccc(F)c(NC(=O)Nc3ccc(Cl)cc3)c2)s1 on V600E-mutated B-RAF (Homo sapiens, UniProt P15056, V600E)?
≤ 0.1 µM

API: the following record is the query input.
Lab note: need IC50 for Cc1nc(-c2ccncc2)c(-c2cccc(NC(=O)Nc3ccc(C(F)(F)F)cc3)c2)s1 on V600E-mutated B-RAF (Homo sapiens, UniProt P15056, V600E), anyone have it?
≤ 0.1 µM

---

target: V600E-mutated B-RAF (Homo sapiens, UniProt P15056, V600E); experiment: In vitro assay for inhibition of mutant B-RAF kinase (recombinant V600E-mutated B-RAF, MEK (K97R) substrate); assay type: biochemical; conditions: 10 nM recombinant V600E-mutated B-RAF
Entries and their IC50 values follow.

Answered examples (3):
Report IC50 for CCn1cc(-c2cccc(NC(=O)Nc3cccc(S(C)(=O)=O)c3)c2)c(-c2ccncc2)n1 [Example 55] please.
≤ 0.1 µM

Item under review: O=C(Nc1ccc(C(F)(F)F)cc1)Nc1cc(-c2sc(NCCN3CCOCC3)nc2-c2ccncc2)ccc1F [Example 35] . Reported IC50?
≤ 0.1 µM

# query: IC50 of entry Cc1ccc(CC(=O)Nc2cccc(-c3sc(C(C)(C)C)nc3-c3ccncc3)c2)cc1 [Example 46]
1 to 10 µM

---
Suppose we examine the molecule Cc1ccc(NC(=O)Cc2cccc(-c3sc(C)nc3-c3ccncc3)c2)cc1 [Example 47] ; what IC50 value has been reported?
≤ 0.1 µM

---

molecular target: wild-type C-RAF (Homo sapiens); experiment: In vitro assay for inhibition of RAF kinases (recombinant wild-type C-RAF, MEK (K97R) substrate); type: biochemical; conditions: 10 nM recombinant wild-type C-RAF
Sequence (P04049 whole entry): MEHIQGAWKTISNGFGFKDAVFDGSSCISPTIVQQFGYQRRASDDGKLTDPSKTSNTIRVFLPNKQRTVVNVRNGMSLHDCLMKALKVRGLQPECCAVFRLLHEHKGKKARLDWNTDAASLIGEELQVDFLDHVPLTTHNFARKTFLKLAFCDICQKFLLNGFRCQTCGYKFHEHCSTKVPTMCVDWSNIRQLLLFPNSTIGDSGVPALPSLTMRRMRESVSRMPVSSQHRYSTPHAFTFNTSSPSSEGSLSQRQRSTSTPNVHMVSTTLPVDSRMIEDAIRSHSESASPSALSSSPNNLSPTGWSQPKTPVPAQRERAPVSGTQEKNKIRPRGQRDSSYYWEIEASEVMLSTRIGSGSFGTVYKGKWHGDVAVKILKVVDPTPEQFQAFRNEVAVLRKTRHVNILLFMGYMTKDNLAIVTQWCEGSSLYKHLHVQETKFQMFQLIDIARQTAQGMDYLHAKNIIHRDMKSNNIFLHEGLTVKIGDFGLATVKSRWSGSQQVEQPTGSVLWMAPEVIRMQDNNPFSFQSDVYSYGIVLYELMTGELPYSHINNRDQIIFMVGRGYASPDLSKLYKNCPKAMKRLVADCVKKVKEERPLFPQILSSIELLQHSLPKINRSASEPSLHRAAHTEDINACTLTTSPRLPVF
Value Type: IC50

Some compounds with known IC50 results, for comparison:
Recorded IC50 for CCn1cc(-c2cccc(NC(=O)Nc3ccc(C(F)(F)F)cc3)c2F)c(-c2ccncc2)n1 with wild-type C-RAF (Homo sapiens), please?
1 to 10 µM

Missing value: IC50, wild-type C-RAF (Homo sapiens), entry Cc1ccc(NC(=O)Nc2cc(-c3sc(C)nc3-c3ccncc3)ccc2F)cc1 . Fill in?
0.1 to 1 µM

// lookup IC50 | system=wild-type C-RAF (Homo sapiens) | key= CCn1cc(-c2cccc(NC(=O)Nc3ccc(C(F)(F)F)cc3)c2)c(-c2ccncc2)n1
0.1 to 1 µM

Now examine the next entry.
Please provide the recorded IC50 for Cc1ccc(NC(=O)Nc2cccc(-c3sc(C)nc3-c3ccncc3)c2)cc1 , tested on wild-type C-RAF (Homo sapiens).
1 to 10 µM

---

Listing of recorded IC50 by entry.
target: V600E-mutated B-RAF (Homo sapiens, UniProt P15056, V600E); assay: In vitro assay for inhibition of mutant B-RAF kinase (recombinant V600E-mutated B-RAF, MEK (K97R) substrate); assay type: biochemical; conditions: 10 nM recombinant V600E-mutated B-RAF

Here are 5 molecules together with their reported answers.
Given Cc1nc(-c2ccncc2)c(-c2cccc(NC(=O)Nc3ccc(Cl)cc3)c2F)s1 , state its recorded IC50.
0.1 to 1 µM

Fill blank: measured IC50 of the molecule Cc1nc(-c2ccncc2)c(-c2cccc(NC(=O)Nc3ccc(S(C)(=O)=O)cc3)c2)s1 is ____.
≤ 0.1 µM

Given the molecule COC(=O)N[C@@H](C)CNc1cc(-c2nc(C(C)(C)C)sc2-c2cccc(NC(=O)Nc3ccc(C)cc3)c2)ccn1 , what is its reported IC50?
≤ 0.1 µM

Given the entry Cc1ccc(CC(=O)Nc2cccc(-c3sc(C)nc3-c3ccnc(N)c3)c2)cc1 , report its measured IC50.
0.1 to 1 µM

Fill in: IC50 of O=C(Nc1ccc(Cl)cc1)Nc1cccc(-c2sc(N3CCOCC3)nc2-c2ccncc2)c1 is ___
≤ 0.1 µM

Further cases:
Find the recorded IC50 belonging to Cc1nc(-c2ccnc(N)c2)c(-c2cc(NC(=O)Nc3ccc(C(F)(F)F)cc3)c(F)cc2F)s1 and report it.
≤ 0.1 µM

// lookup IC50 for CCn1cc(-c2cccc(NC(=O)Nc3ccc(S(=O)(=O)NC)cc3)c2)c(-c2ccncc2)n1
≤ 0.1 µM

Quick one: IC50 of O=C(Nc1ccc(C(F)(F)F)cc1)Nc1cccc(-c2sc(NCCN3CCOCC3)nc2-c2ccncc2)c1 ?
≤ 0.1 µM

Fill in: IC50 of Cc1nc(-c2ccncc2)c(-c2cccc(NC(=O)Nc3c(F)cccc3F)c2)s1 is ___
0.1 to 1 µM

// IC50 lookup, key: Cc1nc(-c2ccnc(N)c2)c(-c2cccc(NC(=O)Nc3ccc(Cl)cc3)c2)s1
≤ 0.1 µM

Given Cc1nc(-c2ccncc2)c(-c2cccc(NC(=O)Nc3cc(F)ccc3F)c2)s1 , state its recorded IC50.
0.1 to 1 µM

Query (molecule): Cc1nc(-c2ccncc2)c(-c2ccc(F)c(NC(=O)Nc3cccc(Cl)c3)c2)s1 ; field requested: IC50
≤ 0.1 µM

# lookup: IC50 of Cc1ccc(NC(=O)Nc2cccc(-c3sc(C(C)(C)C)nc3-c3ccncc3)c2)cc1
0.1 to 1 µM

Param item = Cc1ccc(NC(=O)Nc2cc(-c3sc(C)nc3-c3ccncc3)ccc2F)cc1 ; retrieve measured IC50.
≤ 0.1 µM

Dear colleague, I am looking for the recorded IC50 of the following molecule: CCn1cc(-c2cccc(NC(=O)Nc3ccc(S(=O)(=O)N4CCCC4)cc3)c2)c(-c2ccncc2)n1
> 10 µM

What does the record list as IC50 for Cc1nc(-c2ccncc2)c(-c2ccc(F)c(NC(=O)Nc3ccc(C(F)(F)F)cc3)c2)s1 ?
≤ 0.1 µM
